Values compiled from the supplement of paper PMC10307832.

Tested on: NCI-H1666
Experiment: relative viability (nuclei count vs DMSO), 5 days (fraction); higher = more cells survive
Conditions: first compound 2 µM
Listed compounds paired with reported relative viability

| Compound | relative viability |
| --- | --- |
| CN1CCN(CCOc2cc(OC3CCOCC3)c3c(Nc4c(Cl)ccc5c4OCO5)ncnc3c2)CC1 [Saracatinib] + CS(=O)(=O)CCNCc1ccc(-c2ccc3ncnc(Nc4ccc(OCc5cccc(F)c5)c(Cl)c4)c3c2)o1 [Lapatinib] (partner 2 µM) | 0.872 |
| CN1CCN(CCOc2cc(OC3CCOCC3)c3c(Nc4c(Cl)ccc5c4OCO5)ncnc3c2)CC1 [Saracatinib] + Cc1nc(Nc2ncc(C(=O)Nc3c(C)cccc3Cl)s2)cc(N2CCN(CCO)CC2)n1 [Dasatinib] (partner 0.075 µM) | 0.875 |
| Cc1csc(=NC2CCCCC2)n1/N=C/c1ccc(O)c(O)c1O [MIM1] + COc1cccc2cc(-c3nc([C@H]4CC[C@H](C(=O)O)CC4)n4ncnc(N)c34)[nH]c12 [OSI-027] (partner 0.5 µM) | 0.804 |
| CN1CCN(CCOc2cc(OC3CCOCC3)c3c(Nc4c(Cl)ccc5c4OCO5)ncnc3c2)CC1 [Saracatinib] + CC1(C)CCC(c2ccc(Cl)cc2)=C(CN2CCN(c3ccc(C(=O)NS(=O)(=O)c4ccc(N[C@H](CCN5CCOCC5)CSc5ccccc5)c(S(=O)(=O)C(F)(F)F)c4)cc3)CC2)C1 [Navitoclax] (partner 0.5 µM) | 0.667 |
